Provide the recorded pEC50 for the entries that follow.
- Test system: thymocytes
- Method: Cytoprotection of mouse thymocytes from dexamethasone-induced apoptosis (PI/DiOC6 flow cytometry)
- Type: cell-based, C57Bl/6 mice
- Test Conditions: Thymocyte, read-out: EC50, cytoprotective activity following in vitro dexamethasone treatment of mouse thymocytes
Answers are plain numbers, as −log10 of the molar value.

Batch lookup, pEC50 per entry.
1. CON=C(C[n+]1cccc2ccccc21)c1ccc(C)cc1
2. Br.Cc1ccc(C(=O)Cn2c3c(sc2=N)CCCC3)cc1 [Compound 1, hydrobromide]

**Result**
[6.46, 5.36]
